# System: MCF7
# test: Antitumor activity against human MCF7 cells assessed as growth inhibition measured after 48 hrs by MTT assay
# Format: functional, cell-based
# stated-conditions: MCF7, 48 h
// pIC50 lookup, one value per entry
pIC50 (log units): -log10 of the concentration in mol/L.

>>> measured("C[C@@H]1O[C@@H](O[C@H]2[C@H](OC[C@@]34CC[C@]5(C)C(=CC[C@@H]6[C@@]7(C)CC[C@H](O[C@@H]8O[C@H](CO[C@@H]9O[C@H](CO)[C@@H](O)[C@H](O)[C@H]9O)[C@@H](O)[C@H](O)[C@H]8O)C(C)(C)[C@@H]7CC[C@]65C)[C@@H]3CC(C)(C)[C@@H](O)[C@@H]4O)O[C@H](CO[C@@H]3O[C@H](CO)[C@@H](O)[C@H](O)[C@H]3O)[C@@H](O)[C@@H]2O)[C@H](O)[C@H](O)[C@H]1O")
5.14

Switching to the query record.
### Prompt Data request, read-out pIC50, for COc1cc([C@@H]2c3cc4c(cc3[C@@H](O[C@@H]3O[C@@H]5CO[C@@H](C)O[C@H]5[C@H](O)[C@H]3O)[C@H]3COC(=O)[C@H]23)OCO4)cc(OC)c1O [ETOPOSIDE]
### Response 4.22
